System: SF-539 CNS
TEST: NCI tumour cell line growth inhibition, 48 h

COMPOUND: COc1cc2c3c(c4cc(OC)c(OC)cc4c2cc1OC)C(=O)C1CCC(=O)N1C3 (stereo not given)
TARGET_UNDER_TEST: SF-539 CNS
TGI: 39.8 µM
--
COMPOUND: CC(CC(=O)O)C(C(=O)O)C(=O)O (stereo not given)
TARGET_UNDER_TEST: SF-539 CNS
TGI: > 100 µM
--
COMPOUND: CCCCn1c(C)c2c(c1C)C(=O)N(CC(O)CN1CCc3ccccc3C1)C2=O (stereo not given)
TARGET_UNDER_TEST: SF-539 CNS
TGI: > 100 µM
--
COMPOUND: COc1cc(/C=C/C(=O)O)ccc1C(=O)OCc1ccccc1
TARGET_UNDER_TEST: SF-539 CNS
TGI: > 100 µM
--
COMPOUND: COc1cc(C2SCC(=O)N2c2ccc(Cl)c(Cl)c2)cc(OC)c1OC (stereo not given)
TARGET_UNDER_TEST: SF-539 CNS
TGI: > 100 µM
--
COMPOUND: O=c1c2ccccc2sc2cccc(NCCCN3CCN(CCCNc4cccc5sc6ccccc6c(=O)c45)CC3)c12
TARGET_UNDER_TEST: SF-539 CNS
TGI: > 100 µM
--
COMPOUND: COc1ccc(N2C(=O)CS(=O)(=O)C2c2cccc(Oc3ccccc3)c2)cc1 (stereo not given)
TARGET_UNDER_TEST: SF-539 CNS
TGI: 15.1 µM
--
COMPOUND: Cc1nc2ccccc2nc1-c1ccc(N=[N+]([O-])c2ccc(-c3nc4ccccc4nc3C)cc2)cc1
TARGET_UNDER_TEST: SF-539 CNS
TGI: > 100 µM
--
COMPOUND: COC(=O)C1(OC(=O)Sc2ccccc2)CCN(C)CC1
TARGET_UNDER_TEST: SF-539 CNS
TGI: 26.5 µM
--
COMPOUND: CC(C)=CCc1c(O)ccc2ccc(=O)oc12
TARGET_UNDER_TEST: SF-539 CNS
TGI: > 31.6 µM

----------
System: RPMI-8226 leukemia
TEST: NCI tumour cell line growth inhibition, 48 h
GI50: recorded values

MOLECULE: COc1ccc(-c2oc(=O)ccc2-c2cc(OC)c(OC)c(OC)c2)cc1F
GI50: 11.1 µM
--
MOLECULE: C=CCCCCCCCCCCC1(O)C=CC2=[N+](CCCCCN=C(N)N)CCCN21 (configuration not stated)
GI50: 2.61 µM
--
MOLECULE: O=c1[nH]c(=O)n(C2CC(O)C(CO)O2)cc1CO (configuration not stated)
GI50: > 100 µM
--
MOLECULE: COc1ccc2[nH]cc(-c3nc(-c4c[nH]c5ncccc45)cs3)c2c1
GI50: 4.76 µM
--
MOLECULE: Cc1ccc(Cl)cc1Nc1nc(C(F)(F)F)ccc1C(=O)N1CCN(c2cccc(Cl)c2)CC1
GI50: 33.2 µM
--
MOLECULE: Cc1csc(Nc2nc(-c3cccc(Br)c3)nc(C(Cl)(Cl)Cl)n2)n1
GI50: 2.19 µM
--
MOLECULE: N#C/C=C(\c1ccc([N+](=O)[O-])cc1)n1nnc2cc(Cl)c(Cl)cc21
GI50: 0.604 µM
--
MOLECULE: CCCCCCNC(=O)c1nc(-c2ccccc2)oc1Cc1ccc(OP(=O)(O)O)cc1
GI50: 20.4 µM
--
MOLECULE: Cc1cn2c(/C=C3\C(=O)Nc4ccc(O)cc43)c(-c3ccc(Cl)cc3)nc2s1
GI50: 34.5 µM
--
MOLECULE: CS(=O)(=O)CCCn1c(=O)c(Oc2ccc(F)cc2F)cc2cnc(NC3CCOCC3)nc21
GI50: > 25 µM
--
MOLECULE: CCCn1c(N)c(C(=O)N/N=C(/C)c2cc3cccc(OC)c3o2)sc1=S
GI50: 53.6 µM
--
MOLECULE: COc1ccccc1N1CCN(CCCn2c(=O)c3c(OC)nc(C)cc3c(=O)n2-c2ccccc2)CC1
GI50: > 100 µM

Reference for the values: PubChem BioAssay (NCI)
